System: Caenorhabditis elegans N2
Assay: AC50 for larval growth inhibition (Hill fit); higher = less potent
Conditions: exposure time 48 h
Counter-ions that a name gives are not always drawn.
The threshold is 80 µM. Values of AC50 for larval growth inhibition beneath it are tagged yes (1); values meeting or exceeding it are tagged no (0).

INSERT INTO results (compound, answer_label) VALUES
  ('Cc1cc(C)nc(Nc2ccccc2)n1', 'no (0)'),
  ('CCCCCCCCCCCCCCCCO', 'no (0)'),
  ('CCCCc1oc2ccccc2c1C(=O)c1cc(I)c(OCCN(CC)CC)c(I)c1 [Amiodarone HCl]', 'yes (1)'),
  ('COP(=S)(OC)Oc1ccc([N+](=O)[O-])cc1', 'yes (1)'),
  ('COc1nn(CSP(=S)(OC)OC)c(=O)s1', 'no (0)'),
  ('C[Si](Cn1cncn1)(c1ccc(F)cc1)c1ccc(F)cc1', 'yes (1)'),
  ('Cc1c2ccccc2c(C)c2c1ccc1ccccc12', 'no (0)'),
  ('S=C([S-])NCCNC(=S)[S-].S=C([S-])NCCNC(=S)[S-].[Mn+2].[Zn+2]', 'no (0)');

###

Property: mean nematode size ln(EXT) (ln); scope: individual molecules
System: Caenorhabditis elegans N2
Assay: mean nematode size ln(EXT) after 48 h, plate-adjusted (DMSO control set to 6) (ln(EXT), control-adjusted); higher = larger nematodes / less growth inhibition
Conditions: 1 µM; exposure time 48 h
Endpoint: mean nematode size ln(EXT) (ln)

INSERT INTO assay_data (molecule, assayed_system, endpoint, numeric_result) VALUES
  ('O=C1OC(c2ccc(O)cc2)(c2ccc(O)cc2)c2ccccc21 [Phenolphthalein]', 'Caenorhabditis elegans N2', 'mean nematode size ln(EXT) (ln)', 5.86),
  ('CC(CO)OC(C)CO.CC(O)COCC(C)O (configuration not stated) [Dipropylene glycol]', 'Caenorhabditis elegans N2', 'mean nematode size ln(EXT) (ln)', 5.73),
  ('C[C@@H]1[C@@H](c2ccc(Cl)cc2)SC(=O)N1C(=O)NC1CCCCC1 [Hexythiazox]', 'Caenorhabditis elegans N2', 'mean nematode size ln(EXT) (ln)', 5.94),
  ('CC(C)CCCCCCOC(=O)CCCCC(=O)OCCCCCCC(C)C [Diisononyl adipate]', 'Caenorhabditis elegans N2', 'mean nematode size ln(EXT) (ln)', 5.98),
  ('c1ccc2cc3c(ccc4ccccc43)cc2c1 [Benz[a]anthracene]', 'Caenorhabditis elegans N2', 'mean nematode size ln(EXT) (ln)', 4.38),
  ('Cc1c(COC(=O)[C@@H]2[C@H](/C=C(\Cl)C(F)(F)F)C2(C)C)cccc1-c1ccccc1 (racemic) [Bifenthrin]', 'Caenorhabditis elegans N2', 'mean nematode size ln(EXT) (ln)', 5.85),
  ('CN(C)C(=S)S [Sodium dimethyldithiocarbamate]', 'Caenorhabditis elegans N2', 'mean nematode size ln(EXT) (ln)', 5.79),
  ('Cc1ncc(CO)c(CO)c1O [Pyridoxine]', 'Caenorhabditis elegans N2', 'mean nematode size ln(EXT) (ln)', 5.88),
  ('CCCCOC(=O)c1ccc(O)cc1 [Butylparaben]', 'Caenorhabditis elegans N2', 'mean nematode size ln(EXT) (ln)', 5.8),
  ('CN1CSC(=S)N(C)C1 [Dazomet]', 'Caenorhabditis elegans N2', 'mean nematode size ln(EXT) (ln)', 5.62),
  ('CCCCCOC(C)=O [Pentyl acetate]', 'Caenorhabditis elegans N2', 'mean nematode size ln(EXT) (ln)', 5.91),
  ('Oc1c(Cl)cc(Cl)cc1Cl [2,4,6-Trichlorophenol]', 'Caenorhabditis elegans N2', 'mean nematode size ln(EXT) (ln)', 5.85),
  ('c1ccc(/N=N/c2ccccc2)cc1 [Azobenzene]', 'Caenorhabditis elegans N2', 'mean nematode size ln(EXT) (ln)', 5.67),
  ('Clc1cc(Cl)c2c(c1)N=C1CCCCCN1C2', 'Caenorhabditis elegans N2', 'mean nematode size ln(EXT) (ln)', 5.88),
  ('N#Cc1c(Cl)c(Cl)c(Cl)c(C#N)c1Cl [Chlorothalonil]', 'Caenorhabditis elegans N2', 'mean nematode size ln(EXT) (ln)', 5.94),
  ('O=S1(=O)CCCO1 [1,3-Propane sultone]', 'Caenorhabditis elegans N2', 'mean nematode size ln(EXT) (ln)', 5.87),
  ('O=C(Nc1ccccc1-c1ccc(Cl)cc1)c1cccnc1Cl [Boscalid]', 'Caenorhabditis elegans N2', 'mean nematode size ln(EXT) (ln)', 6),
  ('Oc1ccc(O)cc1 [Hydroquinone]', 'Caenorhabditis elegans N2', 'mean nematode size ln(EXT) (ln)', 6.02),
  ('CN(C[C@@H](CC[N+]12CCC(C3CCCCC3)(CC1)CC2)c1ccc(Cl)c(Cl)c1)C(=O)c1cc(C(F)(F)F)cc(C(F)(F)F)c1', 'Caenorhabditis elegans N2', 'mean nematode size ln(EXT) (ln)', 6.12),
  ('CO[C@H]1/C=C/O[C@@]2(C)Oc3c(C)c(O)c4c(O)c(c(/C=N/N5CCN(C)CC5)c(O)c4c3C2=O)NC(=O)/C(C)=C\C=C\[C@H](C)[C@H](O)[C@@H](C)[C@@H](O)[C@@H](C)[C@H](OC(C)=O)[C@@H]1C [Rifampicin]', 'Caenorhabditis elegans N2', 'mean nematode size ln(EXT) (ln)', 5.92),
  ('OCCOc1ccccc1 [Phenoxyethanol]', 'Caenorhabditis elegans N2', 'mean nematode size ln(EXT) (ln)', 5.98),
  ('CCCCCCC(=O)OCC [Heptanoic acid, ethyl ester]', 'Caenorhabditis elegans N2', 'mean nematode size ln(EXT) (ln)', 5.93),
  ('O=C(O)[C@@H]1[C@H](C(=O)O)[C@H]2CC[C@@H]1O2 [Endothal]', 'Caenorhabditis elegans N2', 'mean nematode size ln(EXT) (ln)', 5.85),
  ('COc1cc2c(c(OC)c1OC)-c1ccc(OC)c(=O)cc1[C@@H](NC(C)=O)CC2 [Colchicine]', 'Caenorhabditis elegans N2', 'mean nematode size ln(EXT) (ln)', 5.93),
  ('Cc1nc(-c2ccccn2)ncc1C(=O)Nn1cc(C)c2cc(F)ccc21', 'Caenorhabditis elegans N2', 'mean nematode size ln(EXT) (ln)', 5.84),
  ('CC(C)C1(C)N=C(c2nc3ccccc3cc2C(=O)O)NC1=O (configuration not stated) [Imazaquin]', 'Caenorhabditis elegans N2', 'mean nematode size ln(EXT) (ln)', 6.14),
  ('N#CSCSC#N [Methylene bis(thiocyanate)]', 'Caenorhabditis elegans N2', 'mean nematode size ln(EXT) (ln)', 5.47),
  ('OC[C@H]1O[C@@H]2O[C@H]3[C@H](O)[C@@H](O)[C@@H](O[C@H]4[C@H](O)[C@@H](O)[C@@H](O[C@H]5[C@H](O)[C@@H](O)[C@@H](O[C@H]6[C@H](O)[C@@H](O)[C@@H](O[C@H]7[C@H](O)[C@@H](O)[C@@H](O[C@H]1[C@H](O)[C@H]2O)O[C@@H]7CO)O[C@@H]6CO)O[C@@H]5CO)O[C@@H]4CO)O[C@@H]3CO [alpha-Cyclodextrin]', 'Caenorhabditis elegans N2', 'mean nematode size ln(EXT) (ln)', 5.83),
  ('CCNC(=O)NC(=O)/C(C#N)=N/OC [Cymoxanil]', 'Caenorhabditis elegans N2', 'mean nematode size ln(EXT) (ln)', 6.05),
  ('C[N+](C)(C)CC1CO1 (configuration not stated) [Oxiranemethanaminium, N,N,N-trimethyl-, chloride]', 'Caenorhabditis elegans N2', 'mean nematode size ln(EXT) (ln)', 5.84),
  ('CCOC(=O)c1ccc(O)cc1 [Ethylparaben]', 'Caenorhabditis elegans N2', 'mean nematode size ln(EXT) (ln)', 5.82),
  ('CC1=C(/C=C/C(C)=C/C=C/C(C)=C/CO)C(C)(C)CCC1 [Retinol]', 'Caenorhabditis elegans N2', 'mean nematode size ln(EXT) (ln)', 5.89),
  ('O=C(O)c1nc(Cl)ccc1Cl [Clopyralid]', 'Caenorhabditis elegans N2', 'mean nematode size ln(EXT) (ln)', 5.75),
  ('O=C(OCCCCCOC(=O)c1ccccc1)c1ccccc1 [1,5-Pentanediol,1,5-dibenzoate]', 'Caenorhabditis elegans N2', 'mean nematode size ln(EXT) (ln)', 5.89),
  ('CC(Cl)(Cl)C(=O)O [Dalapon]', 'Caenorhabditis elegans N2', 'mean nematode size ln(EXT) (ln)', 6.06),
  ('O=c1n(CC2CO2)c(=O)n(CC2CO2)c(=O)n1CC1CO1 (configuration not stated) [Triglycidyl isocyanurate]', 'Caenorhabditis elegans N2', 'mean nematode size ln(EXT) (ln)', 5.83),
  ('C#CCOS(=O)OC1CCCCC1Oc1ccc(C(C)(C)C)cc1 (configuration not stated) [Propargite]', 'Caenorhabditis elegans N2', 'mean nematode size ln(EXT) (ln)', 6.19);
